Hey, just so you know, these numbers are from ChEMBL document CHEMBL4673382.

molecular target: Cyclin-dependent kinase 4/cyclin D1 (Homo sapiens); assay: Inhibition of recombinant human full-length GST-tagged CDK4/cyclinD1 expressed in baculovirus expression system using PEP as substrate incubated for 3 mins in presence of ATP by TR-FRET assay
Measured IC50, listed per entry for reference.
Entry rule: numbers only, all in µM.

Request: # input compound: CN1CCN(c2ccc(Nc3ncc4c(n3)N(C3CCCC3)C3(CC(=O)NC3=O)C4)cc2)CC1 (stereo not drawn) ; wanted: its IC50
Response: 0.0257

###

biological target: Cyclin-dependent kinase 4/cyclin D1 (Homo sapiens, UniProt P11802); experiment: Inhibition of recombinant human full-length GST-tagged CDK4/cyclinD1 expressed in baculovirus expression system using PEP as substrate incubated for 3 mins in presence of ATP by TR-FRET assay
Sequence (P11802 whole entry): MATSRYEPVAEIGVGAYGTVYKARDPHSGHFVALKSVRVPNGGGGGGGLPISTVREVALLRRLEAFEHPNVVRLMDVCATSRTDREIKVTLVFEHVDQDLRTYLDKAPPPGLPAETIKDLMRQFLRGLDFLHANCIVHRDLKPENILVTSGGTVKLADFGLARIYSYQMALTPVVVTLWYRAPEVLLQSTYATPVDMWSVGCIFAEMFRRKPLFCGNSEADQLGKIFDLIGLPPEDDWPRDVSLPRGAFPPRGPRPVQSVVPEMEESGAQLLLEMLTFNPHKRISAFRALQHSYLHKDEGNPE
Sequence (P24385 whole entry, further chain): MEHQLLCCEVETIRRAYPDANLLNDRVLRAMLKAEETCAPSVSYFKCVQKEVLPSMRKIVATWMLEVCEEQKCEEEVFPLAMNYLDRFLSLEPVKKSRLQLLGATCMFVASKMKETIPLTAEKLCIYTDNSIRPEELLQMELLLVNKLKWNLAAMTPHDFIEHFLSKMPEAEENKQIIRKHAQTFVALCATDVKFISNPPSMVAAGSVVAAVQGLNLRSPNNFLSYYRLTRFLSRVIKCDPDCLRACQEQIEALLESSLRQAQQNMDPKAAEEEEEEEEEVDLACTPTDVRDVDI
Measured pIC50, listed per entry for reference.
Please report pIC50 as the negative decimal logarithm of the molar concentration, giving only the number.

Request: What measured pIC50 is associated with CN1CCN(c2ccc(Nc3ncc4c(n3)N(C3CCCC3)C3(CC(=O)NC3=O)C4)cc2F)CC1 (configuration not stated) on Cyclin-dependent kinase 4/cyclin D1 (Homo sapiens, UniProt P11802)?
Response: 7.84
